Assay: aqueous solubility at different pH
Settings: pH 1.5, simulated gastric fluid
experimental readout: solubility (mg/mL)

{"columns": ["compound", "experimental readout", "observed result"],
 "data": [
  ["COc1ccc2c3c1O[C@H]1C(=O)CC[C@@]4(O)[C@@H](C2)N(C)CC[C@]314.Cl [oxycodone hydrochloride]", "solubility", 182]
]}
